# method: Resistance to proteolytic degradation in fetal bovine serum
# Type: in vitro ADME
# testContext: fetal bovine serum, 25% in water, 25% fetal bovine serum in water, 37 °C, LC peak area, time 0 = 100; 0.5 h; replicate 2; read-out: Peptide remaining
No end group written: not given here.
measuredQuantity: remaining at 0.5 h (%)
The response must be a number in % with no trailing unit.

-- ask Give me measured remaining at 0.5 h, please, for this substance: SLLSLIRKLIT-NH2 [Decoralin, reference compound]
-- reply 65

---

# method: Resistance to proteolytic degradation in fetal bovine serum
# Type: in vitro ADME
# testContext: 25% fetal bovine serum in water, 37 °C, LC peak area, time 0 = 100; 6 h; replicate 1
# Procedure: Stability assays were performed following the protocol described by Torres et al.[67]. Briefly, a peptide solution was added to GIBCO fetal bovine serum diluted to 25% in water and kept at 37 °C. The degradation kinetics were monitored by liquid chromatography and the percentage of peptide remaining in each case was calculated by integrating the peptide peak area. These experiments were performed as three independent replicates, and aliquots were taken at 0, 0.5, 1, 2, 4, and 6 h.
No end group written: not given here.
measuredQuantity: Peptide remaining
Just the number, please.

Recorded Peptide remaining, per entry:
-- ask Give me measured Peptide remaining, please, for this substance: ILGAILNVLKSLG-NH2 [PV]
-- reply 0

-- ask Give me measured Peptide remaining, please, for this substance: FLGTLWGGAKGVF-NH2 [VP]
-- reply 0.0

-- ask Give me measured Peptide remaining, please, for this substance: GLGALLNVIKSGL-NH2 [AV]
-- reply 0.0

-- ask Give me measured Peptide remaining, please, for this substance: SLGALINVLKSGG-NH2 [DV]
-- reply 0.0

-- ask Give me measured Peptide remaining, please, for this substance: GLLKRIKTLL-NH2 [Anoplin, reference compound]
-- reply 0.0

Next:
-- ask Give me measured Peptide remaining, please, for this substance: FLGALWNVAKSVF-NH2 [VmCT1, reference compound]
-- reply 0.0

-- ask Give me measured Peptide remaining, please, for this substance: FLPLIGRVLSGIL-NH2 [Temporin A, reference compound]
-- reply 0

-- ask Give me measured Peptide remaining, please, for this substance: FLGAIGNVLKSIL-NH2 [TV]
-- reply 0

-- ask Give me measured Peptide remaining, please, for this substance: SLLSLIRKLIT-NH2 [Decoralin, reference compound]
-- reply 0.0

-- ask Give me measured Peptide remaining, please, for this substance: FLGSLWRKAGTVF-NH2 [VD]
-- reply 56.9

-- ask Give me measured Peptide remaining, please, for this substance: ILGTILGLLKGL-NH2 [Protonectin, reference compound]
-- reply 0.0

-- ask Give me measured Peptide remaining, please, for this substance: FLPLLWRVASGVF-NH2 [VT]
-- reply 0

---

# method: Resistance to proteolytic degradation in fetal bovine serum
# Format: in vitro ADME
# testContext: 25% fetal bovine serum in water, 37 °C, LC peak area, time 0 = 100; 0.5 h; replicate 3
No end group written: not given here.
For each record, check the reported Peptide remaining: if it is below 20 write Criterion met, else write Criterion not met.

Example entries begin here.
-- ask Does the reported Peptide remaining of the following substance sit strictly below 20? FLGAIGNVLKSIL-NH2 [TV]
-- reply Criterion met

-- ask Does the reported Peptide remaining of the following substance sit strictly below 20? SLLSLIRKLIT-NH2 [Decoralin, reference compound]
-- reply Criterion met

-- ask Does the reported Peptide remaining of the following substance sit strictly below 20? SLGALINVLKSGG-NH2 [DV]
-- reply Criterion met

-- ask Does the reported Peptide remaining of the following substance sit strictly below 20? FLGALWNVAKSVF-NH2 [VmCT1, reference compound]
-- reply Criterion not met

-- ask Does the reported Peptide remaining of the following substance sit strictly below 20? ILGTILGLLKGL-NH2 [Protonectin, reference compound]
-- reply Criterion met

Next:
-- ask Does the reported Peptide remaining of the following substance sit strictly below 20? GLGALLNVIKSGL-NH2 [AV]
-- reply Criterion met

-- ask Does the reported Peptide remaining of the following substance sit strictly below 20? ILGAILNVLKSLG-NH2 [PV]
-- reply Criterion not met

-- ask Does the reported Peptide remaining of the following substance sit strictly below 20? FLPLLWRVASGVF-NH2 [VT]
-- reply Criterion met

-- ask Does the reported Peptide remaining of the following substance sit strictly below 20? FLGSLWRKAGTVF-NH2 [VD]
-- reply Criterion not met

---

# method: Resistance to proteolytic degradation in fetal bovine serum
# Type: in vitro ADME
# testContext: fetal bovine serum, 25% in water, 25% fetal bovine serum in water, 37 °C, LC peak area, time 0 = 100; 2 h; replicate 2; read-out: Peptide remaining
No end group written: not given here.
measuredQuantity: remaining at 2 h
A bare number is not enough; add the unit after it.

-- ask Give me measured remaining at 2 h, please, for this substance: SLLSLIRKLIT-NH2 [Decoralin, reference compound]
-- reply 23%

---

Mouse body weight, normalized to the weight at the beginning of the experiment reference
# method: Mouse body weight in the skin abscess infection model
# Type: in vivo
# testContext: day 0 = 100, Day 2, replicate 2
No end group written: not given here.

-- ask Give me measured Mouse body weight, normalized to the weight at the beginning of the experiment, please, for this substance: FLGALWNVAKSVF-NH2 [VmCT1, reference compound]
-- reply 95

---

# method: Resistance to proteolytic degradation in fetal bovine serum
# Format: in vitro ADME
# testContext: 25% fetal bovine serum in water, 37 °C, LC peak area, time 0 = 100; 6 h; replicate 2
No end group written: not given here.
measuredQuantity: Peptide remaining

Recorded Peptide remaining, per entry:
-- ask Give me measured Peptide remaining, please, for this substance: FLGALWNVAKSVF-NH2 [VmCT1, reference compound]
-- reply 0.0

-- ask Give me measured Peptide remaining, please, for this substance: GLLKRIKTLL-NH2 [Anoplin, reference compound]
-- reply 0.0

-- ask Give me measured Peptide remaining, please, for this substance: FLGSLWRKAGTVF-NH2 [VD]
-- reply 59.8

-- ask Give me measured Peptide remaining, please, for this substance: FLGAIGNVLKSIL-NH2 [TV]
-- reply 0

-- ask Give me measured Peptide remaining, please, for this substance: SLLSLIRKLIT-NH2 [Decoralin, reference compound]
-- reply 0.0

-- ask Give me measured Peptide remaining, please, for this substance: ILGTILGLLKGL-NH2 [Protonectin, reference compound]
-- reply 0.0

-- ask Give me measured Peptide remaining, please, for this substance: GLGALLNVIKSGL-NH2 [AV]
-- reply 0.0

-- ask Give me measured Peptide remaining, please, for this substance: FLPLIGRVLSGIL-NH2 [Temporin A, reference compound]
-- reply 0

Next:
-- ask Give me measured Peptide remaining, please, for this substance: FLPLLWRVASGVF-NH2 [VT]
-- reply 0

-- ask Give me measured Peptide remaining, please, for this substance: ILGAILNVLKSLG-NH2 [PV]
-- reply 0

-- ask Give me measured Peptide remaining, please, for this substance: FLGTLWGGAKGVF-NH2 [VP]
-- reply 0.0

-- ask Give me measured Peptide remaining, please, for this substance: SLGALINVLKSGG-NH2 [DV]
-- reply 0.0

---

# method: Mouse body weight in the skin abscess infection model
# Type: in vivo
# testContext: day 0 = 100, Day 2, replicate 1
No end group written: not given here.
Mouse body weight, normalized to the weight at the beginning of the experiment reference
Just the number, please.

Recorded Mouse body weight, normalized to the weight at the beginning of the experiment, per entry:
-- ask Give me measured Mouse body weight, normalized to the weight at the beginning of the experiment, please, for this substance: FLPLLWRVASGVF-NH2 [VT]
-- reply 90

-- ask Give me measured Mouse body weight, normalized to the weight at the beginning of the experiment, please, for this substance: FLGALWNVAKSVF-NH2 [VmCT1, reference compound]
-- reply 90

-- ask Give me measured Mouse body weight, normalized to the weight at the beginning of the experiment, please, for this substance: FLGAIGNVLKSIL-NH2 [TV]
-- reply 90

Now for a further substance.
-- ask Give me measured Mouse body weight, normalized to the weight at the beginning of the experiment, please, for this substance: FLPLIGRVLSGIL-NH2 [Temporin A, reference compound]
-- reply 95

---

Mouse body weight, normalized to the weight at the beginning of the experiment reference
# method: Mouse body weight in the skin abscess infection model
# Format: in vivo
# testContext: day 0 = 100, Day 4, replicate 2
No end group written: not given here.
Just the number, please.

Recorded Mouse body weight, normalized to the weight at the beginning of the experiment, per entry:
-- ask Give me measured Mouse body weight, normalized to the weight at the beginning of the experiment, please, for this substance: FLPLIGRVLSGIL-NH2 [Temporin A, reference compound]
-- reply 100

-- ask Give me measured Mouse body weight, normalized to the weight at the beginning of the experiment, please, for this substance: FLGALWNVAKSVF-NH2 [VmCT1, reference compound]
-- reply 100

-- ask Give me measured Mouse body weight, normalized to the weight at the beginning of the experiment, please, for this substance: FLPLLWRVASGVF-NH2 [VT]
-- reply 100

Now for a further substance.
-- ask Give me measured Mouse body weight, normalized to the weight at the beginning of the experiment, please, for this substance: FLGAIGNVLKSIL-NH2 [TV]
-- reply 95
